# Test system: Enterococcus faecalis
# Run description: microbe, parasite or virus in culture
# Setup conditions: ATCC 51299
Entries and their MIC
Parameter: MIC

[[record]]
molecule = "C/C(=N\\NC(=N)N)c1ccc(Nc2nc(-c3ccccc3)cs2)cc1"
system_name = "Enterococcus faecalis"
parameter = "MIC"
observed_value = "2 µg/mL"

[[record]]
molecule = "CN[C@H](CC(C)C)C(=O)N[C@H]1C(=O)N[C@@H](CC(N)=O)C(=O)N[C@H]2C(=O)N[C@H]3C(=O)N[C@H](C(=O)N[C@H](C(=O)O)c4cc(O)cc(O)c4-c4cc3ccc4O)[C@H](O)c3ccc(c(Cl)c3)Oc3cc2cc(c3O[C@@H]2O[C@H](CO)[C@@H](O)[C@H](O)[C@H]2O[C@H]2C[C@](C)(N)[C@H](O)[C@H](C)O2)Oc2ccc(cc2Cl)[C@H]1O [VANCOMYCIN]"
system_name = "Enterococcus faecalis"
parameter = "MIC"
observed_value = "32 µg/mL"

[[record]]
molecule = "C/C(=N\\NC(=N)N)c1ccc(Nc2nc(-c3ccc(Cl)cc3)cs2)cc1"
system_name = "Enterococcus faecalis"
parameter = "MIC"
observed_value = "1 µg/mL"

[[record]]
molecule = "C/C(=N\\NC(=N)N)c1ccc(Nc2nc(-c3ccc(C)cc3)cs2)cc1"
system_name = "Enterococcus faecalis"
parameter = "MIC"
observed_value = "2 µg/mL"

